- STUDY SYSTEM: T1, human MSLN-R2-his protein (human, UniProt Q13421 391-486)
- T1 construct: also called human MSLN-R2 protein; hMSLN-R2-his; not shown: His tag
- T1 sequence (Q13421 other isoform, or with tags, fused parts or gaps): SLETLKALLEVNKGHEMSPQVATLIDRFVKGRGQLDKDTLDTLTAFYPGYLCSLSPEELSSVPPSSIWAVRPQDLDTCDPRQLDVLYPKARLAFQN
- PROCEDURE SUMMARY: ELISA, coated antigen; antibody 0.0001 nM
Can you tell me OD450 for the items I'm about to list?
Numbers only, in OD450.

Fill in OD450 for each of the 2 binders listed.
1. S009-F6-76.1 (antibody, human IgG1, kappa, V domains shown, Human-murine chimeric antibody, human IgG1/kappa constant regions) VH: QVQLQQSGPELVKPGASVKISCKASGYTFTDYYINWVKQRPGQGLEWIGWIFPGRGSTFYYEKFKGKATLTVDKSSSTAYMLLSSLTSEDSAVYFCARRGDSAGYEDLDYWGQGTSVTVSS VL: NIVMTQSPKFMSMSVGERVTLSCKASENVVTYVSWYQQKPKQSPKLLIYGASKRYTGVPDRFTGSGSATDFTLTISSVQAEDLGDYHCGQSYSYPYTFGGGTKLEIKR
2. Tab106 (YP218, hIgG1) (antibody, V domains shown, Control antibody: YP218 VH and VL recombined into human IgG1 CH and CL expression vectors; also called YP218 human IgG1 antibody) VH: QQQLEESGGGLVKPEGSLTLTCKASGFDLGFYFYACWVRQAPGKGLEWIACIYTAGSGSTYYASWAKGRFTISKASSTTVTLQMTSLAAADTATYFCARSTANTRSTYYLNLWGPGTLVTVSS VL: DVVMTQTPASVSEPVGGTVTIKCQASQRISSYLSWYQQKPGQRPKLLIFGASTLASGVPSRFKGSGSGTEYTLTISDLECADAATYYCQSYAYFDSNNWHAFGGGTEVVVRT

Output:
1: 0.05; 2: 0.06
